B1: HDV Ribozyme (parent)
chain: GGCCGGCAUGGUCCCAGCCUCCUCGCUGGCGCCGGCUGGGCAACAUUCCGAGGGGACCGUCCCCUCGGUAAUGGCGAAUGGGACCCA

Variants of: B1
Assay: self-cleavage, relative activity (ratio to wild type); higher = more cleavage; co-transcriptional
Grouping by measured self-cleavage is done with the following cut points: bottom bin (below 0.1), middle bin (0.1 to below 0.7), top bin (0.7 or more)

Examples from the recorded data:
C14U G74U: top bin
G17A G25A: middle bin
G31C G80C: bottom bin
C22U U72C: middle bin
G39U G82U: middle bin
G53C A87C: top bin
G38A A77G: bottom bin
C32U U69C: top bin

Record C30G U46A — which class?
bottom bin

Record G2A A70U — which class?
middle bin

Record C33G G76U — which class?
middle bin
